- method notes: Decomposition of GSNO in storage, absorbance at 339 nm
- Format: physicochemical
- condition description: modified UW solution; modified UW (containing EDTA but excluding GSH), refrigerator in the dark at 4-6° C.
assay metric: half-life at 100 µM

Tell me the measured half-life at 100 µM of N[C@@H](CCC(=O)N[C@@H](CSN=O)C(=O)NCC(=O)O)C(=O)O [GSNO, S-nitrosoglutathione] , please. ~144 h
